Assay: LC-MS/MS urinary metabolic profile of patients receiving warfarin
Settings: patient F85; urine; free and conjugated
Readout Name: urinary concentration (nM)
Respond numerically; units are nM and should not be typed.

Which value of urinary concentration has been reported for CC(=O)CC(c1ccccc1)c1c(O)c2cccc(O)c2oc1=O (stereo not shown) [8-OH-WAR, 8-hydroxywarfarin] in the records?
109

Which value of urinary concentration has been reported for CC(=O)CC(c1ccc(O)cc1)c1c(O)c2ccccc2oc1=O (stereo not shown) [4′-OH-WAR, 4′-hydroxywarfarin] in the records?
94

Which value of urinary concentration has been reported for CC(=O)CC(c1ccccc1)c1c(O)c2cc(O)ccc2oc1=O (stereo not shown) [6-OH-WAR, 6-hydroxywarfarin] in the records?
1124

Which value of urinary concentration has been reported for CC(=O)CC(c1ccccc1)c1c(O)c2ccc(O)cc2oc1=O (stereo not shown) [7-OH-WAR, 7-hydroxywarfarin] in the records?
2404
